target: Human PI3K beta (Homo sapiens, UniProt P42338); construct: His (N); host or cells: SF9 insect cells (baculovirus); test: Human PI3K beta enzyme assay (HTRF); type: biochemical; conditions: concentration not given; b1387 states 1.1 μM for PI3K α and β
Sequence (P42338 whole entry): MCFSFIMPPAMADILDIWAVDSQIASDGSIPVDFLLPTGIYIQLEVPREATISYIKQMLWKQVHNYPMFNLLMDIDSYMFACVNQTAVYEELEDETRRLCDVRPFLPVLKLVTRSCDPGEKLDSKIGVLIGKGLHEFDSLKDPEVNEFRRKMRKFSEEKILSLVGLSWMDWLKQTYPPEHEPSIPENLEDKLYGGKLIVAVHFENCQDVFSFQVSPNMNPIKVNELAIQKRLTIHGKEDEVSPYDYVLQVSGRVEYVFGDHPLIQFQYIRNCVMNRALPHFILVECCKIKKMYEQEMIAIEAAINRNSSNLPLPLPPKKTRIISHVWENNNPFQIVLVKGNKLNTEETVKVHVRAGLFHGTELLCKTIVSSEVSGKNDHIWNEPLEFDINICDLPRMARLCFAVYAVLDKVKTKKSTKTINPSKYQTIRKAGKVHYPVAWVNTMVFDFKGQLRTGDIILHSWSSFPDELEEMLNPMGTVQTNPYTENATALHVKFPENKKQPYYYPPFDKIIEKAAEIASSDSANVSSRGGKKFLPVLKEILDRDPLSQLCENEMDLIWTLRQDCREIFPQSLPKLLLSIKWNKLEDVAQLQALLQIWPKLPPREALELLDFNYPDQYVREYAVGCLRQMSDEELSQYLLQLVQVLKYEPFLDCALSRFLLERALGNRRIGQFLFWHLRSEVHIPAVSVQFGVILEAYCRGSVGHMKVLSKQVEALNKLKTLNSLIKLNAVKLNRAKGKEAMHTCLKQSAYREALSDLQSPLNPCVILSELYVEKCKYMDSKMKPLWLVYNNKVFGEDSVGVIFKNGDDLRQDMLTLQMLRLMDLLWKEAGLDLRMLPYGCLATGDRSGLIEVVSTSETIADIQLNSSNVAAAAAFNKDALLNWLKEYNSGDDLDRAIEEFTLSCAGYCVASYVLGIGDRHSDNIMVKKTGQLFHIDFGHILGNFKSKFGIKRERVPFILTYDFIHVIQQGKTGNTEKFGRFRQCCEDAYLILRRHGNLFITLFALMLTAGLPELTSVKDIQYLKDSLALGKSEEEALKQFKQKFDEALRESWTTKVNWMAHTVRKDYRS
Sequence (P27986 whole entry partner): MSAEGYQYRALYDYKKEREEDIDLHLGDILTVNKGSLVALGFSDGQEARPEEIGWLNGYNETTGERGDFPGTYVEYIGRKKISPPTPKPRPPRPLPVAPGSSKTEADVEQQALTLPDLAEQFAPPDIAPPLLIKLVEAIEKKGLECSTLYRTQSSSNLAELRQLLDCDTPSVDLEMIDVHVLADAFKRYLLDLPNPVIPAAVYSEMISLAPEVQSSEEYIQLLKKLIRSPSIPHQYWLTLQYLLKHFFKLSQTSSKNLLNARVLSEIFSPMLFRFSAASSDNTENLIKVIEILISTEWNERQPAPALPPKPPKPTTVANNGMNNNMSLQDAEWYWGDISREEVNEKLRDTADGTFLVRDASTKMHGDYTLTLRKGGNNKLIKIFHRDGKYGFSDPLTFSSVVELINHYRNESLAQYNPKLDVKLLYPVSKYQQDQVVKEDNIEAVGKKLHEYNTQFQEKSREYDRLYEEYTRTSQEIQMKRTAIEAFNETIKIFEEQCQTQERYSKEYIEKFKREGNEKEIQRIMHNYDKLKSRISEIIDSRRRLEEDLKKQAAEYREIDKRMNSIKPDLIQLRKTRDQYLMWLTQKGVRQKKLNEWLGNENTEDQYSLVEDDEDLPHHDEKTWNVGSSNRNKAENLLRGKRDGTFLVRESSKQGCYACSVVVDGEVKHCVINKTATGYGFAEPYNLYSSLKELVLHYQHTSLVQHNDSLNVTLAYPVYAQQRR
endpoint-label: p110 beta Percent Inhibition (%)
Report the value in % with no unit label.

query: Which p110 beta Percent Inhibition is listed for N#Cc1c(N2CCOCC2)sc(C(=O)O)c1C(CCF)c1ccc2ccccc2c1 (stereo not shown) ?
result: 117

query: Sample COc1cc(C(O)c2cc(-c3ccnc(C)c3)sc2-c2nnc[nH]2)c(F)cc1Cl (stereo not shown) [Compound 265] — what was its p110 beta Percent Inhibition?
result: 109

query: Entry CC(=O)Nc1cc(-c2cc(C(c3ccc(Cl)cc3)N(C)C3CNC3)c(-c3nnc[nH]3)s2)ccn1 (stereo not shown) : reported p110 beta Percent Inhibition = ?
result: 97

New cases:
query: Which measured p110 beta Percent Inhibition value corresponds to "NCc1c[nH]c(-c2sc(-c3ccncc3)nc2Cc2ccc(Cl)cc2)n1" ?
result: 55
